Sourced from ChEMBL document CHEMBL3877326

Quick note: these are log10(IC50) numbers for system: Acetylcholinesterase (Electrophorus electricus)
Sequence (O42275 whole entry): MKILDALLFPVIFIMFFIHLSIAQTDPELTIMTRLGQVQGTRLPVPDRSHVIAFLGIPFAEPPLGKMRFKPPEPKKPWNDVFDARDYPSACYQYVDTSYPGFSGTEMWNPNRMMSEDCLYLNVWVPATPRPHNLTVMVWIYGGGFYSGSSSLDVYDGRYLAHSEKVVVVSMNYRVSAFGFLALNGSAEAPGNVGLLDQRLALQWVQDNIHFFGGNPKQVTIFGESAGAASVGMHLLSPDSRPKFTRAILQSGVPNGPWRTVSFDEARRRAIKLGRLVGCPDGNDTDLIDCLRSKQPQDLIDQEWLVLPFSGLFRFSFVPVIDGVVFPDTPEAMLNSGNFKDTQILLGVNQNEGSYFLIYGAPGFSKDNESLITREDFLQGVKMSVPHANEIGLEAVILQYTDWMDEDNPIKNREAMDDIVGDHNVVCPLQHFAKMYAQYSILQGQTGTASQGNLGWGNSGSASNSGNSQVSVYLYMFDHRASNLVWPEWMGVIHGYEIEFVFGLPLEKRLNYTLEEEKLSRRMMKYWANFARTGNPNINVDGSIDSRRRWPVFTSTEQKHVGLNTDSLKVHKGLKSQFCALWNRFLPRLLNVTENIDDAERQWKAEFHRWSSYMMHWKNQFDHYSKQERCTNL
Could you please treat all values as log10 of IC50 in µM?

- compound-structure-string: "COc1ccc(/C(=N\\c2ccc(C(=O)O)cc2)c2ccccc2)cc1"
  log10(IC50): 0.78
- compound-structure-string: "O=C(O)c1ccc(/N=C/c2ccccc2O)cc1"
  log10(IC50): 1.26
- compound-structure-string: "O=C(O)c1ccc(/N=C/c2ccccc2[N+](=O)[O-])cc1"
  log10(IC50): 0.78
- compound-structure-string: "COc1cc(/C(C)=N/c2ccc(C(=O)O)cc2)ccc1O"
  log10(IC50): 0.59

Query block: Value wanted: log10(IC50) (Acetylcholinesterase (Electrophorus electricus)) of entry COc1cc(/N=C/c2cc(OC)c(OC)c(OC)c2)cc(OC)c1
Result block: -0.09
